- System: Wnt5a (protein binding on small-molecule microarray)
- testProtocol: small molecules binding Wnt5a protein – biophysical, small-molecule microarray, 635/667 nm fluorescence, primary screen (AID 1142);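 note: fluorescence read at 667 nm with signal to noise per printed feature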
- studyConditions: 635 nm fluorescence, higher = more signal
readoutKind: composite z-score
Answer as a number with no unit attached.

Prompt: Request: composite z-score, test system Wnt5a (protein binding on small-molecule microarray), entry COCCCNC(=O)[C@]1(Cc2ccccc2)N=C(c2ccc(OCCCO)cc2)O[C@@H]1c1ccccc1N=[N+]=[N-]
Completion: 1.1

Prompt: Give Wnt5a (protein binding on small-molecule microarray) composite z-score for O=C(C=C(CC(O)c1cccc(Cl)c1)OCCF)OCCF (centres undefined)
Completion: -0.234

Prompt: Please tell me: composite z-score of COc1cc2c(cc1OC)CN(C(=O)[C@@H]1[C@H]3C(=O)O[C@H](c4ccccc4)[C@H](c4ccccc4)N3[C@H](c3ccc(O)cc3)[C@@]13C(=O)Nc1ccc(C#CCNC(N)=O)cc13)CC2 , system Wnt5a (protein binding on small-molecule microarray)?
Completion: 0.147

Prompt: Any idea what composite z-score came out for O=C1CSC(c2cccc([N+](=O)[O-])c2)N1c1ccccc1 (centres undefined) on Wnt5a (protein binding on small-molecule microarray)?
Completion: 0.0388

The reported numbers originate from PubChem BioAssay.
